- tgt: KRAS (G12C)::SOS1 (Homo sapiens, UniProt P01116, C118S/C51S/C80L/G12C)
- Construct: KRAS (G12C) 1-169, N-terminal 6His-tag for purification, cleaved off; 6His-tag (N, cleaved yes)
- Sequence (P01116 1-169 isoform P01116-2 G12C/C51S/C80L/C118S): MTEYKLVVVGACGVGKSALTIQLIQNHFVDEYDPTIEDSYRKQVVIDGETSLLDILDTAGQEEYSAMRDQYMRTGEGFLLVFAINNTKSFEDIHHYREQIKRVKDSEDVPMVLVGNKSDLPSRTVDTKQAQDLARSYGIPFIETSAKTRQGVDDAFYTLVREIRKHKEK
- test: KRAS::SOS1 AlphaScreen binding assay, KRAS G12C
- test_settings: read-out: KRASG12C IC50
Listed below: IC50 values for each entry.
parameter: IC50

• COC[C@H](C)Nc1cc(O[C@@H](C)[C@@H]2CCCN2C)nc(-c2onc3c2CCC[C@@]32CCCc3sc(N)c(C#N)c32)n1 [Example I-5] = 5 nM
• C[C@H](Oc1cc(Oc2cccnc2)nc(-c2onc3c2CCC[C@@]32CCCc3sc(N)c(C#N)c32)n1)[C@@H]1CCCN1C [Example I-2] = 1 nM
• C[C@H](Oc1cc(Nc2cnccn2)nc(-c2noc3c2CCC[C@@]32CCCc3sc(N)c(C#N)c32)n1)[C@@H]1CCCN1C [II-14] = 3 nM
• C[C@H](Oc1cc(Nc2nccs2)nc(-c2noc3c2CCC[C@@]32CCCc3sc(N)c(C#N)c32)n1)[C@@H]1CCCN1C [II-12] = 4 nM
• C[C@H](Oc1cc(O[C@@H]2CNC2(C)C)nc(-c2noc3c2CCC[C@@]32CCCc3sc(N)c(C#N)c32)n1)[C@@H]1C[C@@H](F)CN1C [II-31] = 1 nM
• C[C@H](Oc1cc(Nc2ccccn2)nc(-c2noc3c2CCC[C@@]32CCCc3sc(N)c(C#N)c32)n1)[C@@H]1CCCN1C [II-16] = 2 nM
